Target: UniProt P03162
Sequence (P03162 whole entry): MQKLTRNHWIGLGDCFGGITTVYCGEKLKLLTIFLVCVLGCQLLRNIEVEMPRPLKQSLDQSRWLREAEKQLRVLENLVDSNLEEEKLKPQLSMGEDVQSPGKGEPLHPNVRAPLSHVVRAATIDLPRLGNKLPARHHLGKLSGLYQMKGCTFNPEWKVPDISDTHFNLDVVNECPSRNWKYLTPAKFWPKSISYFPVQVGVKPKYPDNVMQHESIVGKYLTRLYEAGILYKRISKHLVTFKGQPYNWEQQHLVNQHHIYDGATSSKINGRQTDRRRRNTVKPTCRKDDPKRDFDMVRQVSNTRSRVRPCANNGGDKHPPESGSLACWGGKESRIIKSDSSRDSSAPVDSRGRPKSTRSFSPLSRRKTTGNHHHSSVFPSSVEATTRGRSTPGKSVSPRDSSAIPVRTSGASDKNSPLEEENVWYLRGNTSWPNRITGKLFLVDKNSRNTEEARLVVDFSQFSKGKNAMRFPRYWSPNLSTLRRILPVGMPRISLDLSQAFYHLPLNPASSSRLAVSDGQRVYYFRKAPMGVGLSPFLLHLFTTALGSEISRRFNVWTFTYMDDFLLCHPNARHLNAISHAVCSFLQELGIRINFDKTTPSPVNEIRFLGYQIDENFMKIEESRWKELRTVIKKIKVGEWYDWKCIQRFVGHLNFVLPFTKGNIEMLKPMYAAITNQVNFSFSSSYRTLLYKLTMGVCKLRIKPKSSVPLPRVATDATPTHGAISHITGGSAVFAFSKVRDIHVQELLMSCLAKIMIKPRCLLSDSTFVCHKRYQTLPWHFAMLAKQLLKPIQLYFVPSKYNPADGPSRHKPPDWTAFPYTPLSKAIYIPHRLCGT
Experiment: Inhibition of duck hepatitis B virus polymerase (reverse transcriptase) using DNA and RNA templates
Type: biochemical
Conditions: DNA template; compounds used as 5'-triphosphates; read-out: IC50, duck hepatitis virus polymerase, DNA template
experimental_readout: IC50 (nM)

I = O=c1[nH]c(=O)n([C@H]2C[C@H](O)[C@@H](CO)O2)cc1CO [5-hydroxymethyl-2'-deoxyuridine]
II = CC=Cc1cn([C@H]2C[C@H](O)[C@@H](CO)O2)c(=O)[nH]c1=O
III = CCc1cn([C@H]2C[C@H](O)[C@@H](CO)O2)c(=O)[nH]c1=O
IV = CC=Cc1cn([C@@H]2O[C@H](CO)[C@@H](O)[C@@H]2O)c(=O)[nH]c1=O
Q: Descending by IC50 please, for everything listed above. Submit the labels in the order that the ranking request calls for.
Result: III, I, IV, II
